- System: BDF1 mice, B16 melanoma ip, median survival T/C
- assay.info: NCI In Vivo Anticancer Drug Screen. Data for tumor model B16 Melanoma (intraperitoneal) in B6D2F1 (BDF1) mice
- experimental.parameters: endpoint: median survival time; dose: 400.0 mg/kg/injection; schedule: Q01DX009 (ip); vehicle: Klucel (hydroxypropylcellulose) (HPC); higher = longer survival
Inconclusive results and toxic doses are left out.
quantity.kind: T/C

Sample answers from the record:
{"molecule": "COc1ccc(NCc2ccc(C)cc2)cc1", "experimental.system": "BDF1 mice, B16 melanoma ip, median survival T/C", "T/C": "91 % of control"}
{"molecule": "O=COCCc1ccccc1", "experimental.system": "BDF1 mice, B16 melanoma ip, median survival T/C", "T/C": "96 % of control"}
{"molecule": "O=C1NC(c2ccc3ccccc3c2)Nc2ccccc21 (stereo not drawn)", "experimental.system": "BDF1 mice, B16 melanoma ip, median survival T/C", "T/C": "90 % of control"}
{"molecule": "Cc1ccc(S(=O)(=O)N2CCn3ncc(C#N)c32)cc1", "experimental.system": "BDF1 mice, B16 melanoma ip, median survival T/C", "T/C": "96 % of control"}
{"molecule": "CN(/N=N/c1nc[nH]c1C(N)=O)C(C)(C)C", "experimental.system": "BDF1 mice, B16 melanoma ip, median survival T/C", "T/C": "104 % of control"}
{"molecule": "CNC(=O)Nc1ccc(C(=O)NC(C)C)cc1", "experimental.system": "BDF1 mice, B16 melanoma ip, median survival T/C", "T/C": "88 % of control"}
{"molecule": "NC(=O)c1ccccc1C(N)=O", "experimental.system": "BDF1 mice, B16 melanoma ip, median survival T/C", "T/C": "93 % of control"}

Input: # input molecule: Cc1ccc(NS(=O)(=O)c2ccc(F)cc2)cc1Cl ; wanted: its T/C
Output: 86 % of control
